Test: Approximate kinetic solubility (visual, solvent aliquot addition)
Format: physicochemical
Settings: MeCN/Water (7:3 v/v), 23 °C, organic solvent or mixture, thermodynamic from solid; read-out: Solubility (mg/mL)at RT (23° C.)
Value Type: solubility

Would you kindly share the measured solubility for O=C(NOC[C@H](O)CO)c1ccc(F)c(F)c1Nc1ccc(I)cc1F ?
> 408 mg/mL

====

Test: Approximate kinetic solubility (visual, solvent aliquot addition)
Assay type: physicochemical
Conditions: isopropyl ether (IPE), 23 °C, organic solvent or mixture, thermodynamic from solid; read-out: Solubility (mg/mL)at RT (23° C.)
Experimental: Solubility of mirdametinib prepared by Example 3 was assessed in 30 solvents. The solubility was visually estimated at room temperature (RT; ˜23° C.) by dosing small aliquots of solvent into a fixed amount of solid (˜10 mg) until the dissolution point or a maximum volume (1.8 mL) was reached. Samples that contained undissolved solids at RT were heated to 40° C. for 1 hour and the dissolution was assessed visually. The solubility data are shown below in Table 1.
Value Type: solubility

Can you look up the measured solubility of O=C(NOC[C@H](O)CO)c1ccc(F)c(F)c1Nc1ccc(I)cc1F for me?
< 6 mg/mL

====

Test: Approximate kinetic solubility (visual, solvent aliquot addition)
Assay type: physicochemical
Details: 23 °C, organic solvent or mixture, thermodynamic from solid; 2-Propanol: water (9:1 v/v); read-out: Solubility (mg/mL)at RT (23° C.)
Value Type: solubility

Give its solubility value. Item: O=C(NOC[C@H](O)CO)c1ccc(F)c(F)c1Nc1ccc(I)cc1F
> 400 mg/mL

====

Test: Approximate kinetic solubility (visual, solvent aliquot addition)
Format: physicochemical
Settings: Dioxane, 23 °C, organic solvent or mixture, thermodynamic from solid; read-out: Solubility (mg/mL)at RT (23° C.)
Value Type: solubility

Item O=C(NOC[C@H](O)CO)c1ccc(F)c(F)c1Nc1ccc(I)cc1F has what recorded solubility?
> 408 mg/mL

====

Assay: Approximate kinetic solubility (visual, solvent aliquot addition)
Format: physicochemical
Conditions: organic solvent or mixture, thermodynamic from solid; Isopropyl ether (IPE); heated to 40° C. for 1 hour; read-out: Solubility (mg/mL) at 40° C.
Value Type: solubility at 1 h

Query (compound): O=C(NOC[C@H](O)CO)c1ccc(F)c(F)c1Nc1ccc(I)cc1F [mirdametinib] ; field requested: solubility at 1 h
< 6 mg/mL

====

Experiment: Approximate kinetic solubility (visual, solvent aliquot addition)
Type: physicochemical
Conditions: ethanol/toluene (9:1), 23 °C, organic solvent or mixture, thermodynamic from solid; read-out: Solubility (mg/mL)at RT (23° C.)
Value Type: solubility

Could you share which solubility value was measured for O=C(NOC[C@H](O)CO)c1ccc(F)c(F)c1Nc1ccc(I)cc1F ?
210 to 420 mg/mL

====

Assay: Approximate kinetic solubility (visual, solvent aliquot addition)
Format: physicochemical
Settings: acetonitrile (MeCN), 23 °C, organic solvent or mixture, thermodynamic from solid; read-out: Solubility (mg/mL)at RT (23° C.)
Value Type: solubility

Please look up its solubility: O=C(NOC[C@H](O)CO)c1ccc(F)c(F)c1Nc1ccc(I)cc1F [mirdametinib]
19 to 49 mg/mL

====

Test: Approximate kinetic solubility (visual, solvent aliquot addition)
Type: physicochemical
Settings: organic solvent or mixture, thermodynamic from solid; Chloroform; heated to 40° C. for 1 hour; read-out: Solubility (mg/mL) at 40° C.
Value Type: solubility at 1 h

Query (compound): O=C(NOC[C@H](O)CO)c1ccc(F)c(F)c1Nc1ccc(I)cc1F ; field requested: solubility at 1 h
< 6 mg/mL

====

Test: Approximate kinetic solubility (visual, solvent aliquot addition)
Assay type: physicochemical
Conditions: water, 23 °C, water, thermodynamic from solid; read-out: Solubility (mg/mL)at RT (23° C.)
Value Type: solubility

Requested field: solubility. Item: O=C(NOC[C@H](O)CO)c1ccc(F)c(F)c1Nc1ccc(I)cc1F
< 6 mg/mL

====

Test: Drying of certain forms via vacuum oven at 45° C.
Assay type: physicochemical
Settings: overnight in vacuum oven at 45° C.; PXRD at about 70% ambient lab humidity

Compound	Form after vacuum oven drying (PXRD)
O=C(NOC[C@H](O)CO)c1ccc(F)c(F)c1Nc1ccc(I)cc1F [Form XIX]	Remained unchanged
O=C(NOC[C@H](O)CO)c1ccc(F)c(F)c1Nc1ccc(I)cc1F [Form V]	Remained unchanged

====

Experiment: Approximate kinetic solubility (visual, solvent aliquot addition)
Format: physicochemical
Settings: organic solvent or mixture, thermodynamic from solid; Cyclohexane; heated to 40° C. for 1 hour; read-out: Solubility (mg/mL) at 40° C.
Value Type: solubility at 1 h

Data request, read-out solubility at 1 h, for O=C(NOC[C@H](O)CO)c1ccc(F)c(F)c1Nc1ccc(I)cc1F
< 6 mg/mL

====

Assay: Approximate kinetic solubility (visual, solvent aliquot addition)
Format: physicochemical
Conditions: dimethyl sulfoxide (DMSO), 23 °C, organic solvent or mixture, thermodynamic from solid; read-out: Solubility (mg/mL)at RT (23° C.)
Value Type: solubility

Given the entry O=C(NOC[C@H](O)CO)c1ccc(F)c(F)c1Nc1ccc(I)cc1F [mirdametinib] , report its measured solubility.
> 388 mg/mL

====

Assay: Approximate kinetic solubility (visual, solvent aliquot addition)
Type: physicochemical
Conditions: tetrahydrofuran (THF), 23 °C, organic solvent or mixture, thermodynamic from solid; read-out: Solubility (mg/mL)at RT (23° C.)
Value Type: solubility

Query (molecule): O=C(NOC[C@H](O)CO)c1ccc(F)c(F)c1Nc1ccc(I)cc1F [mirdametinib] ; field requested: solubility
> 396 mg/mL

====

Experiment: Approximate kinetic solubility (visual, solvent aliquot addition)
Type: physicochemical
Conditions: 2-methyl-2-butanol, 23 °C, organic solvent or mixture, thermodynamic from solid; read-out: Solubility (mg/mL)at RT (23° C.)
Value Type: solubility

# input compound: O=C(NOC[C@H](O)CO)c1ccc(F)c(F)c1Nc1ccc(I)cc1F ; wanted: its solubility
97 to 194 mg/mL

====

Test: Approximate kinetic solubility (visual, solvent aliquot addition)
Type: physicochemical
Conditions: organic solvent or mixture, thermodynamic from solid; Toluene; heated to 40° C. for 1 hour; read-out: Solubility (mg/mL) at 40° C.
Value Type: solubility at 1 h

Give the measured solubility at 1 h of O=C(NOC[C@H](O)CO)c1ccc(F)c(F)c1Nc1ccc(I)cc1F .
< 6 mg/mL

====

Test: Approximate kinetic solubility (visual, solvent aliquot addition)
Type: physicochemical
Conditions: trifluoroethanol (TFE), 23 °C, organic solvent or mixture, thermodynamic from solid; read-out: Solubility (mg/mL)at RT (23° C.)
Value Type: solubility

Entry O=C(NOC[C@H](O)CO)c1ccc(F)c(F)c1Nc1ccc(I)cc1F : reported solubility = ?
7 to 12 mg/mL

====

Assay: Approximate kinetic solubility (visual, solvent aliquot addition)
Format: physicochemical
Settings: cyclohexane, 23 °C, organic solvent or mixture, thermodynamic from solid; read-out: Solubility (mg/mL)at RT (23° C.)
Value Type: solubility

For the molecule shown here, O=C(NOC[C@H](O)CO)c1ccc(F)c(F)c1Nc1ccc(I)cc1F , give the reported solubility.
< 6 mg/mL

====

Assay: Approximate kinetic solubility (visual, solvent aliquot addition)
Format: physicochemical
Details: dimethylcarbonate (DMC), 23 °C, organic solvent or mixture, thermodynamic from solid; read-out: Solubility (mg/mL)at RT (23° C.)
Value Type: solubility

Query: solubility; subject: O=C(NOC[C@H](O)CO)c1ccc(F)c(F)c1Nc1ccc(I)cc1F
10 to 19 mg/mL

====

Test: Approximate kinetic solubility (visual, solvent aliquot addition)
Type: physicochemical
Settings: Ethanol/Water (9:1 v/v), 23 °C, organic solvent or mixture, thermodynamic from solid; read-out: Solubility (mg/mL)at RT (23° C.)
Value Type: solubility

Bench note: what solubility did O=C(NOC[C@H](O)CO)c1ccc(F)c(F)c1Nc1ccc(I)cc1F show?
> 424 mg/mL

====

Assay: Approximate kinetic solubility (visual, solvent aliquot addition)
Assay type: physicochemical
Details: DMF (dimethylformamide), 23 °C, organic solvent or mixture, thermodynamic from solid; read-out: Solubility (mg/mL)at RT (23° C.)
Value Type: solubility

Looking for the measured solubility of O=C(NOC[C@H](O)CO)c1ccc(F)c(F)c1Nc1ccc(I)cc1F , can you help?
> 408 mg/mL

====

Assay: Approximate kinetic solubility (visual, solvent aliquot addition)
Type: physicochemical
Details: organic solvent or mixture, thermodynamic from solid; Tert-butanol (t-BuOH); solubility determined at 30° C. (footnote); read-out: Solubility (mg/mL)at RT (23° C.)
Value Type: solubility

For O=C(NOC[C@H](O)CO)c1ccc(F)c(F)c1Nc1ccc(I)cc1F , what is its reported solubility?
6 to 10 mg/mL

====

Assay: Approximate kinetic solubility (visual, solvent aliquot addition)
Type: physicochemical
Details: 2-propanol (IPA), 23 °C, organic solvent or mixture, thermodynamic from solid; read-out: Solubility (mg/mL)at RT (23° C.)
Value Type: solubility

Data request, read-out solubility, for O=C(NOC[C@H](O)CO)c1ccc(F)c(F)c1Nc1ccc(I)cc1F [mirdametinib]
98 to 196 mg/mL

Numbers sourced from patent US12275688B2.
